Reported TGI values for a set of molecules
Tested on: UACC-62 melanoma
Assay notes: NCI tumour cell line growth inhibition, 48 h

INSERT INTO measurements (molecule, measurement_type, reading) VALUES
  ('O=c1cc2n(c(=O)[nH]1)C1OC(C(O)C1O)[C@H]2CCO (stereo partly specified)', 'TGI', '> 100 µM'),
  ('Cc1ccc(S(=O)(=O)NC(=O)C2(Br)S(=O)(=O)OCCOS2(=O)=O)cc1', 'TGI', '> 100 µM'),
  ('CCOC(=O)C1c2[nH]c3ccccc3c2CCN1C(=O)c1ccco1 (stereo unspecified)', 'TGI', '> 10 µM'),
  ('COc1ccc(C(=O)/C(=N/Nc2ccccc2)c2ccc(OC)cc2)cc1', 'TGI', '> 100 µM'),
  ('Nc1nc(=O)n(C2CC(O)C(O)C(CO)O2)cc1F (stereo unspecified)', 'TGI', '> 100 µM');

The record that follows has no TGI shown yet.
Report TGI for CC1(C)CC[C@]2(C(=O)n3ccnc3)CC[C@]3(C)[C@H](C(=O)C=C4[C@@]5(C)C=C(C#N)C(=O)C(C)(C)[C@@H]5CC[C@]43C)[C@@H]2C1 please.
< 0.0336 µM
